# target_entity: T1, recombinant human IgE (human, UniProt P01854-1 1-428)
# T1 construct: made in-house (ALK); preloaded on immobilised FcεRIα in the displacement ELISA
# assay_text: IgE-FcεRIα displacement ELISA
metric_name: Max effect

binder: F5A1(G4S)4 (bispecific antibody) DVQLQESGGGLVQPGGSLRLSCAASGSIFSIDIMGWYRQAPGKQRELVATMPEGNYINYADSVKGRLTLSRDKGKNTVYLQLNSLKPEDTAVYYCYGFGVREGRGNVYWGQGTQVTVSGGGGSGGGGSGGGGSGGGGSEVQLLESGGGLVQPGGSLRLSCAASGFTFGNYDMAWVRQAPGKRPEWVSSIDTGGDITHYADSVKGRFTISRDNAKNTLYLQMNSLRPEDTAVYWCATDEEYALGPNEFDYYGQGTLVTVS
Max effect: 75%
--
binder: A1B2(G4S)4 (bispecific antibody) EVQLLESGGGLVQPGGSLRLSCAASGFTFGNYDMAWVRQAPGKRPEWVSSIDTGGDITHYADSVKGRFTISRDNAKNTLYLQMNSLRPEDTAVYWCATDEEYALGPNEFDYYGQGTLVTVSGGGGSGGGGSGGGGSGGGGSQVQLVESGGGLVQAGGSLRLSCAVFGSTFSNNVADWYRQAPGKQRELVARISASGATREYGDSVKGRFTISRDDAKNTMYLQMNNLKPEDTAVYRCHKIEWEDLSRKDYWGQGTQVTVS
Max effect: > 95%

Attention now shifts to the item below.
The binder listed as sdAb F4 (VHH) VHH: DVQLQESGGGLVQAGGSLRLSCAVSGLSFSSMGWFRQPPGKEREFVAAISLYSGSTYYADSVKGRFTISSDNAKSTVYLQMNSLKPEDAAVYFCAADRQRTWSTFYASRQATYNYWGQGTQVTVTS has a reported Max effect of < 20%

Cited source for all entries: patent US20250171562A1
